Reported values of IC50 for individual entries
Tested on: Karpas 422 cells
TEST METHOD NOTES: Karpas 422 cell viability, CTG (Cell Titre Glo) assay
Assay type: cell-based, human
MEASUREMENT PARAMETERS: Homo sapiens; Inhibition of proliferation of Karpas 422 cells (EZH2 Y641N); viability measured Day 4, Day 7 or Day 11, time point of the tabulated values not stated

INSERT INTO measurements (compound, assay_metric, value) VALUES
  ('CNCc1ccc(-c2cnc(NCc3c(F)ccc4c3CCO4)n3cc(C#N)nc23)cc1 [Example 185]', 'IC50', '≤ 0.25 µM'),
  ('CN(C)Cc1ccc(-c2cnc(NCc3c(F)ccc4c3CCO4)n3cc(C#N)nc23)c(Cl)c1 [Example 33]', 'IC50', '≤ 0.25 µM'),
  ('COC(=O)c1cc(-c2cnc(NCc3c(F)ccc4c3CCO4)n3cc(C#N)nc23)n(C)n1 [Example 169]', 'IC50', '≤ 0.25 µM'),
  ('N#Cc1cn2c(NCc3c(F)ccc4c3CCO4)ncc(-c3ccc(S(=O)(=O)C(F)(F)F)cc3)c2n1 [Example 82]', 'IC50', '0.25 to 0.5 µM'),
  ('CN(C)Cc1ccc(-c2cnc(NCc3c(F)ccc4c3CCO4)n3cc(C#N)nc23)c(F)c1 [Example 61]', 'IC50', '≤ 0.25 µM'),
  ('N#Cc1cn2c(NCc3c(F)ccc4c3CCO4)ncc(-c3cccnn3)c2n1 [Example 142]', 'IC50', '≤ 0.25 µM'),
  ('CN(C)Cc1ncc(-c2cnc(NCc3c(F)ccc4c3CCO4)n3cc(C#N)nc23)cc1F [Example 40]', 'IC50', '≤ 0.25 µM');

For Karpas 422 cells, give the measured IC50 of the entry CC(C)(O)Cn1cc(-c2cnc(NCc3c(F)ccc4c3CCO4)n3cc(C#N)nc23)cn1 [Example 121]
0.25 to 0.5 µM
